# STUDY SYSTEM: UniProt:P11229
# Sequence (P11229 whole entry): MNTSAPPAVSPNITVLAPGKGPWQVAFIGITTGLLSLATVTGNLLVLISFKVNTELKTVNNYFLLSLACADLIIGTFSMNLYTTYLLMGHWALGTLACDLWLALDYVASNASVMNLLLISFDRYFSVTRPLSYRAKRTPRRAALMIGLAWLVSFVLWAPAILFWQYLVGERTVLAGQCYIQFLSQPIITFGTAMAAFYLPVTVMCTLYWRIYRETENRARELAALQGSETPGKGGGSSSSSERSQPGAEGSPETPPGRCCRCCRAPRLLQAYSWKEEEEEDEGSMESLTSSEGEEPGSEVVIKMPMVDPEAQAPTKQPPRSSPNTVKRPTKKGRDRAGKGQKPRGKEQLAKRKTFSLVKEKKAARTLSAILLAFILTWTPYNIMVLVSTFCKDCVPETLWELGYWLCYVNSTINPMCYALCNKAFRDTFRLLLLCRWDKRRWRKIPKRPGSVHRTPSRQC
# ASSAY METHOD TEXT: mAChR M1 cell-based functional assay (calcium mobilization), PAM activity: increase in the EC20 acetylcholine response
# STUDY CONDITIONS: CHO-K1 cells expressing hM1; calcium flux (Fluo-4); potentiation of EC20 acetylcholine response
OBSERVATION TYPE: Emax (%)

                                   molecule  recorded_result
0  Cn1ccc(-c2ccc(Cc3cc(C(=O)NC4CCOCC4)nc(-n4cccn4)c3)cc2)n1               65

P. Cc1nc(-c2ccc(Cc3cc(C(=O)N[C@H]4CCC[C@@H]4O)nc(-n4cccn4)c3C)cc2)co1
Q. Cc1c(Cc2ccc(-n3cccn3)cc2)cc(C(=O)N[C@H]2CCC[C@@H]2O)nc1-c1ccn(C)n1
Req: Hi there, can you help? I need to know whether P or Q has lower measured Emax. I would appreciate it if you answered with the label of your choice.
Resp: P
(P: 52%, Q: 85%)

a. Cn1cc(-c2ccc(Cc3cc(C(=O)N[C@H]4CCC[C@@H]4O)nc(-c4ccn(C)n4)c3)cn2)cn1
b. Cc1nc(-c2ccc(Cc3cc(C(=O)N[C@H]4CC[C@@H]4O)nc(-n4cccn4)c3)cc2)co1
Req: Smaller Emax value, a vs b ? Your answer should be the label attached to the chosen record.
Resp: b

A. Cc1c(Cc2ccc(-c3ccn(C)n3)cc2)cc(C(=O)N[C@H]2CCCC[C@@H]2O)nc1-c1ccn(C)n1
B. Cn1cc(-c2ccc(Cc3cc(C(=O)NC4CC5(COC5)C4)nc(-c4ccn(C)n4)c3)cn2)cn1
Req: Kindly compare A with B and tell me which has the lower Emax figure. Indicate your choice by writing its label.
Resp: B

a. Cc1ccc(Cc2cc(C(=O)N[C@H]3CCOC[C@@H]3O)nc(-c3ccn(C)n3)c2C)cn1
b. Cn1cc(-c2ccc(Cc3cc(C(=O)NC[C@@H]4CCCO4)nc(-c4ccn(C)n4)c3)cn2)cn1
Req: When the recorded Emax values are compared, which is smaller: that of a or that of b ? Answer format: the label of the selected item.
Resp: b
